- protocol: protein stability index of a GFP-peptide fusion (yeast GPS) (PSI 1-4); higher = more stable; sorted into four equal gates, so the index is relative within each strain
- measurement.parameters: ubr1∆
Would you please tag the item class 1 when its protein stability index is 3 or above, and class 0 when it is below?

- sequence.code: "SFGKIYVTKPMVNESDG [RPB2]"
  qualitative.label: "class 1"
- sequence.code: "MYPSPTGVMIGIDLAYN [PRP8]"
  qualitative.label: "class 0"
- sequence.code: "LSFTPTTVIGIRGSDQA [RPN2]"
  qualitative.label: "class 0"
- sequence.code: "RGMLGLLEPPAKELQGI [RPO31]"
  qualitative.label: "class 1"
- sequence.code: "AVNSIMALKFVSIKFTN [ECM29]"
  qualitative.label: "class 1"
- sequence.code: "FGVSFIYAGYDDRYGYQ [PRE9]"
  qualitative.label: "class 0"
- sequence.code: "ELSNELSRLSTASKIIV [MED1]"
  qualitative.label: "class 1"
- sequence.code: "QHPFPLAHSQHRCAIRS [SSN2]"
  qualitative.label: "class 0"
- sequence.code: "EVRAISVAKIRFPETMD [RPO21]"
  qualitative.label: "class 1"
- sequence.code: "KRINFEKIKDIHNTKLP [POP1]"
  qualitative.label: "class 0"
- sequence.code: "NGKVQYFLRRQYILQIV [YJL039C/NUP192]"
  qualitative.label: "class 0"

====

- protocol: protein stability index of a GFP-peptide fusion (yeast GPS) (PSI 1-4); higher = more stable; sorted into four equal gates, so the index is relative within each strain
- measurement.parameters: doa10∆

- sequence.code: "AYSSRFQTPFRRRREGK [RPL5]"
  protein stability index: 2.9
- sequence.code: "KRGVKGVEYRLRLRISR [RPL31A]"
  protein stability index: 1.64
- sequence.code: "MSLRHFGHLMHYGNEHI [RPN1]"
  protein stability index: 1.47
- sequence.code: "AVKTAETGYMSRRLMKS [RPO31]"
  protein stability index: 2.33
- sequence.code: "LQAQDRAHRIGQKNEVR [SNF2]"
  protein stability index: 3
- sequence.code: "TTDSLTKVLQADLPGSY [YMR129W/POM152]"
  protein stability index: 2.38
- sequence.code: "DANLNDLPETGFFENIE [IRR1]"
  protein stability index: 3.13
- sequence.code: "ADVTHFVKPGTALDAEG [DIS3]"
  protein stability index: 2.9
- sequence.code: "DDYKDLTCSLYELYINK [IRR1]"
  protein stability index: 2.74
- sequence.code: "SPRFNVKIGDIEKWTAN [RPS22A]"
  protein stability index: 3.06
- sequence.code: "LFNKPPSTNAQNVNVPS [YOR098C/NUP1]"
  protein stability index: 3.15
- sequence.code: "ATFLKLAAPQLVQMYIG [RPT5]"
  protein stability index: 1.31
- sequence.code: "NFYRPLLRSVLVLLELV [YML103C/NUP188]"
  protein stability index: 1.23
- sequence.code: "VHKLRHYLVNLTSPAFG [GRR1]"
  protein stability index: 1.24

====

- protocol: protein stability index of a GFP-peptide fusion (yeast GPS) (PSI 1-4); higher = more stable; sorted into four equal gates, so the index is relative within each strain
- measurement.parameters: doa10∆

- sequence.code: "KINPFGFEQVKIALGSP [RRI2]"
  protein stability index: 2.65
- sequence.code: "NAGTEKEKESKKDSKPA [YLR335W/NUP2]"
  protein stability index: 3.31
- sequence.code: "QIMQNPTHYKIPAWFLN [RPS18A]"
  protein stability index: 2.02
- sequence.code: "FQQQQQQQQQQQQPQPQ [PGD1]"
  protein stability index: 2.21
- sequence.code: "KSIRKDTVEEKKEEKLN [SIR4]"
  protein stability index: 2.96
- sequence.code: "ALYPQEARLRNLTYSSG [RPB2]"
  protein stability index: 2.39
- sequence.code: "EIGLLGGRYVYPVHEAH [SNU114]"
  protein stability index: 1.85
- sequence.code: "LLTLTNAANVPVENIWA [RPP1A]"
  protein stability index: 2.12
- sequence.code: "ITLHPSFFGPRMKQYLK [RPB7]"
  protein stability index: 2.41
- sequence.code: "RVQVGDIVTVGQCRPIS [RPS11A]"
  protein stability index: 3.14
- sequence.code: "VYPITLSTDATSADLKS [UBP6]"
  protein stability index: 2.32
- sequence.code: "RVKAMEVDEKPTETYSD [RPT5]"
  protein stability index: 3.46
- sequence.code: "ELRYQSHILNSHSLALN [DSN1]"
  protein stability index: 2.29
- sequence.code: "DPNIKVNDTVKIDLASG [RPS4A]"
  protein stability index: 2.81

Value source: the supplement of paper PMC9732359
